- assay explanation: Quantitative High-Throughput drug screen in 47 multiple myeloma cell lines against the NCATS MIPE library collection: JJN3_DSMZ cell viability assay (AID 1918966; note: nearly all actives have a fitted effect of over 50% in size)
- setup conditions: JJN3 myeloma cells viability, CellTiter-Glo ATP, 48 h; series mostly up to 45.8 µM
Inconclusive results are not listed. Active and inactive are the calls of the source. Calls come from the whole dose curve; as a rule, active = well fitted cell-killing curve with a large enough effect; inconclusive = small, poorly fitted or top-dose-only effect, or effect the other way; inactive = no such curve, though single readings can be large or run the other way.
Permitted responses: active, inactive

Example cases with answers are listed next.
N#Cc1c(NC(=O)c2cccc3ccccc23)sc2c1CCCC2 ... active
C[C@](Cc1c[nH]c2ccccc12)(NC(=O)OC1C2CC3CC(C2)CC1C3)C(=O)NC[C@H](NC(=O)CCC(=O)O)c1ccccc1 (stereo partly drawn) ... inactive
COc1cc(C)c(Sc2cnc(NC(=O)c3ccc(CNC(C)C(C)(C)C)cc3)s2)cc1C(=O)N1CCN(C(C)=O)CC1 (stereo not drawn) ... active
CNC(=O)c1cccc(-c2ccc3c(N4CCOC[C@H]4C)nc(N4CCOC[C@H]4C)nc3n2)c1 ... active
COc1ccc(C=Cc2cc(OC)c(OC)c(OC)c2)cc1NC(=O)[C@H](N)CO ... active
Cc1ncc(-c2ccnc(Nc3ccc(S(C)(=O)=O)cc3)n2)n1C(C)C ... active
C[C@H]1[C@@H](OC(=O)CCC(=O)O)O[C@@H]2O[C@@]3(C)CC[C@@H]4[C@H](C)CC[C@@H]1[C@@]24OO3 ... active
CCOc1cc2c(c(F)c1OCC)C(=N)N(CC(=O)c1cc(N3CCOCC3)c(OC)c(C(C)(C)C)c1)C2 ... active

Query :: Record lookup: outcome of this test for `CC(C)N1[N]C(=C2C=c3cc(O)ccc3=N2)c2c(N)ncnc21` ?
Result :: active

Query :: Record lookup: outcome of this test for `CN(CC(=O)N(Cc1ccc(C2CCCCC2)cc1)c1ccc(C(=O)O)c(O)c1)S(=O)(=O)c1c(F)c(F)c(F)c(F)c1F` ?
Result :: active

Query :: Record lookup: outcome of this test for `Cc1cnc(NC(=O)Nc2cc(Br)c(C)cc2OC[C@@H]2CNCCO2)cn1` ?
Result :: active

Query :: Record lookup: outcome of this test for `OC[C@@H](O)[C@@H](O)[C@H](O)[C@@H](O)CO` ?
Result :: inactive

Query :: Record lookup: outcome of this test for `CC(C)c1cnn2c(NCc3ccccc3)cc(NCCCCCCN)nc12` ?
Result :: active

Query :: Record lookup: outcome of this test for O=C1CSC(=O)N1C(CCc1ccncc1)COc1ccc(-c2cccc([N+](=O)[O-])c2)cc1 (stereo not drawn) ?
Result :: active

Query :: Record lookup: outcome of this test for `Cc1cnc(Nc2ccc(CN3CCOCC3)cc2)nc1Nc1cccc(S(=O)(=O)NC(C)(C)C)c1` ?
Result :: active

Query :: Record lookup: outcome of this test for `CN(C)CCN1C(=O)c2cccc3cc(N)cc(c23)C1=O` ?
Result :: active

Query :: Record lookup: outcome of this test for `C=C1C[C@@]2(O)O[C@@]3(C[C@H]2C(C)C)[C@H](C)CC[C@H]13` ?
Result :: inactive

Query :: Record lookup: outcome of this test for `NC[C@H]1O[C@H](O[C@H]2[C@@H](O)[C@@H](O[C@H]3O[C@H](CO)[C@@H](O)[C@H](N)[C@@H]3O)[C@H](N)C[C@@H]2N)[C@H](N)C[C@H]1O` ?
Result :: active

----------
What max response was measured for each of the following?
- subject of test: Retinoic acid receptor RXR-alpha (Homo sapiens) (UniProt P19793)
- Sequence (P19793 whole entry, looked up): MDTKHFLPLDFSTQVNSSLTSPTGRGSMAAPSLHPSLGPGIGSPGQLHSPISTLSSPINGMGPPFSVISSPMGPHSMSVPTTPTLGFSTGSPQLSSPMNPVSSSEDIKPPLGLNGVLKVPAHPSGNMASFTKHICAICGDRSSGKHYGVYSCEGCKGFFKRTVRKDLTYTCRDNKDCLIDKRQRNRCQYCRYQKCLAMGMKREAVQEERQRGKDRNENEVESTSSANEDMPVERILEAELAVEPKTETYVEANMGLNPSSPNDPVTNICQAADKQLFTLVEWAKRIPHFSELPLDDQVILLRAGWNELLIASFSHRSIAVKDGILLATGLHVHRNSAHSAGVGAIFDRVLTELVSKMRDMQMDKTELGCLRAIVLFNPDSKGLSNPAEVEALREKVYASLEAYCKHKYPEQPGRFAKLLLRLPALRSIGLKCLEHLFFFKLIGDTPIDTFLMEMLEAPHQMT
- assay explanation: qHTS assay for small molecule antagonists of retinoid X receptor alpha signaling (AID 588546);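 note: cells stimulated with 9-cis-retinoic acid as agonist; % is set by controls: 0 for no effect and ±100 for the full control effect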
- setup conditions: HEK293T RXRa-UAS-bla, beta-lactamase ratio, antagonist mode
Results filed as inconclusive are left out. Calls of active or inactive are those of the source. Calls come from the whole dose curve; as a rule, active = well fitted inhibition curve with a large enough effect in the signal ratio, with a control signal flat (not every such curve was filed as active); inconclusive = small, poorly fitted or top-dose-only effect, or effect the other way, or a change in a side signal; inactive = no such curve, though single readings can be large or run the other way; the % refers to the signal ratio.

C[C@]12CC[C@@H]3c4ccc(O)cc4CC[C@H]3[C@H]1CC[C@H]2O ... -12.2% (inactive)
Cc1cc(O)c2c(c1)C(=O)c1cccc(O)c1C2=O ... 11.5% (inactive)
OC[C@@H](O)[C@@H](O)[C@H](O)[C@@H](O)CO ... -2% (inactive)

Query :: Observed max response on Retinoic acid receptor RXR-alpha (Homo sapiens) (UniProt P19793) for `O=C1c2cccc(O)c2C(=O)c2c(O)cc(CO)cc21` , please.
Result :: 15.1% (inactive)

----------
- assay explanation: qHTS Screen of the MIPE 4.0 Collection Against Ewings Sarcoma (EW8) (AID 1259255); note: nearly all actives have a fitted effect of over 35% in size;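 for viability: 100% = DMSO-treated cells and 0% = medium-only wells without cells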
- setup conditions: EW8 Ewing sarcoma viability, CellTiter-Glo, 48 h; series mostly up to 45.8 µM
Inconclusive results are not listed. Active and inactive are the calls of the source. The call rests on the fitted dose curve; in most records, active means well fitted inhibition curve with a large enough effect; inconclusive means small, poorly fitted or top-dose-only effect; inactive means no such curve, though single readings can be large or run the other way.
Permitted responses: active, inactive

Example cases with answers are listed next.
CN(C)CC[C@H](c1ccc(Cl)cc1)c1ccccn1 ... inactive
CN(N=O)C(=O)N[C@H]1C(O)OC(CO)[C@@H](O)[C@H]1O (some centres not stated) ... inactive

Query :: Record lookup: outcome of this test for `O=C(O)c1ccc(Nc2ncc3c(n2)-c2ccc(Cl)cc2C(c2c(F)cccc2F)=NC3)cc1` ?
Result :: active

Query :: Record lookup: outcome of this test for `c1cc(CN2CCCNCCNCCCNCC2)ccc1CN1CCCNCCNCCCNCC1` ?
Result :: inactive

Query :: Record lookup: outcome of this test for `COc1cc(C)c(C=CC(C)=CC=CC(C)=CC(=O)O)c(C)c1C` ?
Result :: inactive

Query :: Record lookup: outcome of this test for `C[C@@H](Oc1ccc2[nH]nc(C=Cc3cnn(CCO)c3)c2c1)c1c(Cl)cncc1Cl` ?
Result :: active

Query :: Record lookup: outcome of this test for `CNC(=O)c1cccc(-c2ccc3c(N4CCOC[C@H]4C)nc(N4CCOC[C@H]4C)nc3n2)c1` ?
Result :: active

Query :: Record lookup: outcome of this test for `CC(=O)N[C@H]1[C@@H]([C@H](O)[C@H](O)CO)OC(C(=O)O)=C[C@@H]1N=C(N)N` ?
Result :: inactive

Query :: Record lookup: outcome of this test for `COc1cc(C[C@@H](CO)[C@H](CO)Cc2ccc(O)c(OC)c2)ccc1O` ?
Result :: active

Query :: Record lookup: outcome of this test for `CON=C(C(=O)N[C@@H]1C(=O)N2C(C(=O)O)=C(CSC(=O)c3ccco3)CS[C@H]12)c1csc(N)n1` ?
Result :: inactive

Query :: Record lookup: outcome of this test for `Cc1nc(NC(=O)N2CCC[C@@H]2C(N)=O)sc1-c1ccnc(C(C)(C)C(F)(F)F)c1` ?
Result :: active

Query :: Record lookup: outcome of this test for `C[C@H]1[C@@H](OC(=O)CCC(=O)O)O[C@@H]2O[C@@]3(C)CC[C@@H]4[C@H](C)CC[C@@H]1[C@@]24OO3` ?
Result :: active

----------
- assay explanation: qHTS of pediatric cancer cell lines to identify multiple opportunities for drug repurposing: Primary screen for RD cells (AID 1347104); note: nearly all actives have a fitted effect of over 55% in size
- setup conditions: RD rhabdomyosarcoma viability, CellTiter-Glo luminescence, 48 h; series mostly up to 46 µM
Results filed as inconclusive are left out. Calls of active or inactive are those of the source. The call rests on the fitted dose curve; in most records, active means well fitted cell-killing curve with a large enough effect; inconclusive means small, poorly fitted or top-dose-only effect; inactive means flat fitted curve, though single readings scatter.
Permitted responses: 1 = active, -1 = inactive

Example cases with answers are listed next.
CCCCCCCCCCCCCCCC(=O)OC[C@@H](NC(=O)C(Cl)Cl)[C@H](O)c1ccc([N+](=O)[O-])cc1 ... -1
O=C1NCCc2[nH]c(-c3ccncc3)cc21 ... 1

Query :: Record lookup: outcome of this test for `C[C@@H]1[C@H](C)CC[C@]2(C(=O)O)CC[C@]3(C)C(=CC[C@@H]4[C@@]5(C)C[C@@H](O)[C@H](O)[C@@](C)(CO)[C@H]5CC[C@]43C)[C@@H]12` ?
Result :: -1

Query :: Record lookup: outcome of this test for `CC(C)(C)[N+]([O-])=Cc1ccc(S(=O)(=O)O)cc1S(=O)(=O)O` ?
Result :: -1

Query :: Record lookup: outcome of this test for `COc1cc(OC)cc(-c2ccc3ncc4ccc(=O)n(-c5ccc(N6CCNCC6)c(C(F)(F)F)c5)c4c3c2)c1` ?
Result :: 1

Query :: Record lookup: outcome of this test for `CC(C)[C@H](CO)Nc1nc(Nc2cccc(Cl)c2)c2ncn(C(C)C)c2n1` ?
Result :: 1

Query :: Record lookup: outcome of this test for `CCCCOc1ccc(C(=O)Nc2ccc(F)cc2F)cc1` ?
Result :: -1

Query :: Record lookup: outcome of this test for `C[C@H](NC(=O)Cc1cc(F)cc(F)c1)C(=O)N[C@H](C(=O)OC(C)(C)C)c1ccccc1` ?
Result :: -1

----------
- assay explanation: qHTS profiling for inhibitors of Plasmodium falciparum (DD2) proliferation (AID 743323)
- setup conditions: lower = more inhibition; at 28.7 µM (top of the series)
- Procedure: Plasmodium falciparum is a virulent malarial parasite that kills 1-2 million people worldwide each year. […] Because mature erythrocytes lack DNA, only Plasmodium-derived DNA is detected. The SYBR Green viability assay was adapted from a method described previously (Plouffe et al., 2008). […] The following morning, fluorescence intensity at 485(14) nm excitation and 535(25) nm emission wavelengths was measured on an EnVision (Perkin Elmer) plate reader. […]
observed property: activity, percent of control (%)
One number for each entry, in %.

Known results for compounds:
Cn1c(Nc2ccc(C(F)(F)F)cc2)nc2cc(Oc3ccnc(-c4ncc(C(F)(F)F)[nH]4)c3)ccc21 ... 0.692
COc1cc2c(cc1OC)[C@@H]1C(=O)c3ccc4c(c3O[C@@H]1CO2)C=CC(C)(C)O4 ... 44.5

Field: activity, percent of control. Fill in for each record below.
1. CN(C)c1ccc2cc(C(=O)N[C@@H](CCCN=C(N)CCl)C(=O)NCc3ccccc3)ccc2c1
2. O=C(O)CCCCCC(=O)NN=C1CCCC1

Result ::
1: 11.8; 2: 96.4

The values you see were collected from PubChem BioAssay (NCATS).
